B1: Osa-1-4 twister ribozyme (parent)
chain: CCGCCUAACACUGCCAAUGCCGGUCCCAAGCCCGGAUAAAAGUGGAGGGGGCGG

- Variants of: B1
- experiment-summary: self-cleavage, relative activity (ratio to wild type); higher = more cleavage; co-transcriptional
assay-readout: self-cleavage
Give the value as a plain number.

The reported value for CCGCCUAACACUGCCAAUGCCGGUCCCAAGCCCGGAUAAAAGUGGAGCGGACGG [G48C G51A] in terms of self-cleavage is 0.11

The reported value for CCGCCUAACACUGCCAAUUCCGGGCCCAAGCCCGGAUAAAAGUGGAGGGGGCGG [G19U U24G] in terms of self-cleavage is 0.07

The reported value for CCGCCUAACACUGCGAAUGCCGGUCCCAAGGCCGGAUAAAAGUGGAGGGGGCGG [C15G C31G] in terms of self-cleavage is 0.12

The reported value for CCGCCUAAAGCUGCCAAUGCCGGUCCCAAGCCCGGAUAAAAGUGGAGGGGGCGG [A10G C9A] in terms of self-cleavage is 0.57

The reported value for CCGCCUAACACUGCCAUUGCCGGUCCAAAGCCCGGAUAAAAGUGGAGGGGGCGG [A17U C27A] in terms of self-cleavage is 0.29

The reported value for CCGCCUAACACUGUCAAUGCCGGUCCCAAGCCCGGAUAAAAGUGGAGGGAGCGG [C14U G50A] in terms of self-cleavage is 0.35

The reported value for CCGCCUAACACUUCCAAUGCCGGUCCCAAGCCCGGUUAAAAGUGGAGGGGGCGG [A36U G13U] in terms of self-cleavage is 0.03

The reported value for CCGCCUAACACUGCCAAUGCCGGUCCCAAGCCCGGAUAAAAGUGGAGGGAACGG [G50A G51A] in terms of self-cleavage is 0.5

The reported value for CCGCCUAACACUGCCAAUUCCGGUCCCAAGCCCGGGUAAAAGUGGAGGGGGCGG [A36G G19U] in terms of self-cleavage is 0.99

The reported value for CCGCCUAACACUGCCAAUGCCGUUCCCGAGCCCGGAUAAAAGUGGAGGGGGCGG [A28G G23U] in terms of self-cleavage is 0.05

The reported value for CCGCCUAACACUGCCAAUGCCGGUCUCAAGCCCGGAUAAAAUUGGAGGGGGCGG [C26U G42U] in terms of self-cleavage is 0.04

The reported value for CCGCCUAACAAUGCCAAUGCCGGUCCCAAGCCCGGAUAAAAGUGGAAGGGGCGG [C11A G47A] in terms of self-cleavage is 0.07

The reported value for CCGCCUAACACUGCCAAUGCCGAUCCCAAGCCCGGAUAAAAGUGGAGGGGGCGG [G23A] in terms of self-cleavage is 0.8

The reported value for CCGCCUAACACUGCCAAGGCCGGUCCCAAGCCCGGAUAAAAGUGGAGGGAGCGG [G50A U18G] in terms of self-cleavage is 0.79

The reported value for CCGCCUAACACUGCCAAUGCCGGGCCCAAGCCCGGAUAAAAGAGGAGGGGGCGG [U24G U43A] in terms of self-cleavage is 0.03

The reported value for CCGCCUAACACUGCCAAUGCCGGUCCCAAGCCCGGUUAAAAGUGGAGGGCGCGG [A36U G50C] in terms of self-cleavage is 1.06

The reported value for CCGCCUAACACUGCCAAUGCCGGACCCAAGCCCGGAUAAAAGUGGAGGGUGCGG [G50U U24A] in terms of self-cleavage is 0.13

The reported value for CCGCCUAACACCGCAAAUGCCGGUCCCAAGCCCGGAUAAAAGUGGAGGGGGCGG [C15A U12C] in terms of self-cleavage is 0.07

The reported value for CCGCCUAACACUGCCAAUGCCGGUCCCAAGCCCCGAUAAAAGGGGAGGGGGCGG [G34C U43G] in terms of self-cleavage is 0.07

The reported value for CCGCCUAACACUGCCAAUGCCGGUCCCAAGCCGGGAUAAAAGGGGAGGGGGCGG [C33G U43G] in terms of self-cleavage is 0.06

The reported value for CCGCCUAACACUGGCAAUGCCGGUCCCAAGCCCGGAUAAAAGUGUAGGGGGCGG [C14G G45U] in terms of self-cleavage is 0.03

The reported value for CCGCCUGACACUGCCAAUGCCGGUCCCAAGCCCGGAUAAAAGUGGAGGGGGAGG [A7G C52A] in terms of self-cleavage is 0.29
